Test: BSK_LPS_PGE2: BioMAP Diversity Plus: LPS Assay for Prostaglandin E2 (PGE2) Biomarker Activity (AID 2283082)
Settings: primary human HUVEC with PBMC; actives raise or lower the signal
Active and inactive are the calls of the source. The calls were made as follows: active = hit-call score of the fitted dose curve at least 0.9, where 1 is the maximum; inactive = score below 0.9.
Hi there, use one of these labels in your reply, thanks! TRUE for active, FALSE for inactive

Answered examples (4):
[[record]]
compound = "N=C(N)C(F)(F)C(F)(F)C(F)(F)C(F)(F)C(F)(F)C(F)(F)C(F)(F)F"
assigned_class = "FALSE"

[[record]]
compound = "FC(F)(F)C(F)(F)CNCC(F)(F)C(F)(F)F"
assigned_class = "FALSE"

[[record]]
compound = "O=S(=O)(OCCOC(F)(F)F)C(F)(F)F"
assigned_class = "FALSE"

[[record]]
compound = "Nc1ccc([N+](=O)[O-])cc1O"
assigned_class = "FALSE"


Answer briefly: the call reported for "O[Si](c1ccccc1)(c1ccccc1)c1ccccc1" in this assay.
TRUE

Now give it for CCCCCCC(C)OC(=O)CCCCC(=O)OC(C)CCCCCC (stereo unspecified) too.
FALSE

Now give it for O=C(O)C(F)(OC(F)(F)C(F)(OC(F)(F)C(F)(F)C(F)(F)F)C(F)(F)F)C(F)(F)F (stereo unspecified) too.
FALSE

Now give it for "FC(F)(F)C(F)(F)C(F)(F)C(F)(F)C(F)(F)C(F)(F)C(F)(F)Br" too.
FALSE

Now give it for "FC(F)(F)C(F)(F)C(F)(F)C(F)(F)C(F)(F)C(F)(F)CCS" too.
FALSE

Now give it for "C=CC(F)(F)C(F)(F)C(F)(F)C(F)(F)C(F)(F)C(F)(F)C(F)(F)C(F)(F)C=C" too.
FALSE

Now give it for "CS(C)(=O)=O" too.
FALSE
